biological target: Ephrin type-B receptor 2 (Homo sapiens) (UniProt P29323); conditions: at 0.1 µM;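 also: reported as mean inhibition of EPHB2, from the GSK PKIS dataset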
Sequence (P29323 whole entry): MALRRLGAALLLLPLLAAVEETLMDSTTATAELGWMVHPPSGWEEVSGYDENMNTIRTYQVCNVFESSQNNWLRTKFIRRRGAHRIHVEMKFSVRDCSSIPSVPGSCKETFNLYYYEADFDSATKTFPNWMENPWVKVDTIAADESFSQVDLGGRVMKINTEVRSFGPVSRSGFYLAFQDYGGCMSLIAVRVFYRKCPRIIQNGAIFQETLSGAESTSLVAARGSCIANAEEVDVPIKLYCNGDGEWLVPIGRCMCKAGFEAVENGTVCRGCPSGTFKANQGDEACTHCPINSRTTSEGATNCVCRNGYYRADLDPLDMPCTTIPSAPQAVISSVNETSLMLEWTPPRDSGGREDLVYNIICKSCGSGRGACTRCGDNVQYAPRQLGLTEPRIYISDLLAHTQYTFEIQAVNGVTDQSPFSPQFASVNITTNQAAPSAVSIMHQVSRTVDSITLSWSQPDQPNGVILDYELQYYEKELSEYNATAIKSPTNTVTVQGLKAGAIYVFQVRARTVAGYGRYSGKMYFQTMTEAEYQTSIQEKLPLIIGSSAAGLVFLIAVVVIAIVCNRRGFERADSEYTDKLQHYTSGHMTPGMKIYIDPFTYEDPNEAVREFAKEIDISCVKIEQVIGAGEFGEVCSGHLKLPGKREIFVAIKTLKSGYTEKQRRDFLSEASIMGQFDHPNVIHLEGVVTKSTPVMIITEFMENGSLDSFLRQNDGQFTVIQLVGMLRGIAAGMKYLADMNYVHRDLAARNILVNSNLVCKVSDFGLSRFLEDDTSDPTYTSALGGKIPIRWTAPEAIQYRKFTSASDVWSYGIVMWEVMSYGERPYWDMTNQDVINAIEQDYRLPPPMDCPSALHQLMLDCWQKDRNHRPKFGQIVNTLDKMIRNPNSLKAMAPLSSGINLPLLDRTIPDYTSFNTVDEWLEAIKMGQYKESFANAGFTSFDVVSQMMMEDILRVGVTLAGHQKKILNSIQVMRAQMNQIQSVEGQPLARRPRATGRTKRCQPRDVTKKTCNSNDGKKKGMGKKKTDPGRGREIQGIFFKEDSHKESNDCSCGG
Please use Condition met whenever inhibition is not below 9%, and Condition not met whenever it is.

(Q) Form field: inhibition at least 9%? Entry: CNC(=O)c1sc(-n2cnc3cc(OC)c(OC)cc32)cc1OCc1ccccc1C(F)(F)F
(A) Condition not met

(Q) hey, is inhibition for this one >= 9%? CCS(=O)(=O)c1ccc(OC)c(Nc2ncc(-c3cccc(C(C)=O)c3)o2)c1
(A) Condition met

(Q) Can CN(c1ccc(NC(=O)NCCN2CCOCC2)cc1)c1ccnc(Nc2ccc(CS(C)(=O)=O)cc2)n1 be said to have inhibition at or above 9%?
(A) Condition not met
